Conditions: rat plasma, 37° C., 15 s, HPLC
Where a name gives a salt, the structure may show the parent alone.
The label depends only on Dissociation percent 15 s: Satisfied if it is at least 70%, Not satisfied if it is smaller.

Solved entries (count: 3):
• CC(C)c1cccc(C(C)C)c1OC(=O)C(F)CCCC(=O)[O-].CC(C)c1cccc(C(C)C)c1OC(=O)C(F)CCCC(=O)[O-].[Zn+2] (stereo not shown) = Satisfied
• CC(C)c1cccc(C(C)C)c1OC(=O)C(CF)CP(=O)([O-])[O-].CC(C)c1cccc(C(C)C)c1OC(=O)C(CF)CP(=O)([O-])[O-].CC(C)c1cccc(C(C)C)c1OC(=O)C(CF)CP(=O)([O-])[O-].[Al+3].[Al+3] (racemic) = Not satisfied
• CC(C)c1cccc(C(C)C)c1OC(=O)C(F)CCN(C)C (racemic) [E1, hydrochloride] = Satisfied

Task: hey, is Dissociation percent 15 s for this one >= 70%? `CC(C)c1cccc(C(C)C)c1OC(=O)[C@@H](F)CCCN(C)Cc1ccccc1.Cl`
Result: Satisfied

Task: Is reported Dissociation percent 15 s greater than or equal to 70% here: CC(C)NCC(CF)C(=O)Oc1c(C(C)C)cccc1C(C)C.CS(=O)(=O)O (racemic)
Result: Not satisfied

Task: Does the compound CC(C)c1cccc(C(C)C)c1OC(=O)C(F)CCOP(=O)([O-])[O-].[K+].[K+] (racemic) have recorded Dissociation percent 15 s that is 70% or more?
Result: Not satisfied

Task: Confirm if Dissociation percent 15 s reported for the compound CC(C)c1cccc(C(C)C)c1OC(=O)C(CF)CCCCCCC(=O)[O-].CC(C)c1cccc(C(C)C)c1OC(=O)C(CF)CCCCCCC(=O)[O-].CC(C)c1cccc(C(C)C)c1OC(=O)C(CF)CCCCCCC(=O)[O-].[Al+3] (racemic) is 70% or above.
Result: Not satisfied

###

Tested on: KM mice
Details: TI=LD50/ED50, mouse, 6 mg/ml solution, confirmation test
Quantity: TI Mouse

Form: item CC(C)c1cccc(C(C)C)c1OC(=O)[C@H](F)CCN(C)C.Cl [E2] ; test system KM mice; TI Mouse: 3.7

Assay KM mice, sample CC(C)c1cccc(C(C)C)c1OC(=O)C(F)CC(=O)[O-].[Na+] (stereo not shown) , TI Mouse read: 3.1

Form field TI Mouse for item `CC(C)c1cccc(C(C)C)c1O` on KM mice: 3.8

Entry `CC(C)c1cccc(C(C)C)c1OC(=O)[C@@H](F)CCOP(=O)([O-])[O-].[Na+].[Na+]` : TI Mouse on KM mice = 2.3

###

TI Mouse values for the molecules below.
Tested on: KM mice
Details: TI=LD50/ED50, mouse, 3 mg/ml solution, confirmation test
// no unit string in output, number only

Consider the worked cases shown below.
- CC(C)c1cccc(C(C)C)c1OC(=O)[C@H](F)CCN(C)C.Cl [E2]: 3
- CC(C)c1cccc(C(C)C)c1O: 4.9
- CC(C)c1cccc(C(C)C)c1OC(=O)[C@@H](F)CCOP(=O)([O-])[O-].[Na+].[Na+]: 3.0

Entry CC(C)c1cccc(C(C)C)c1OC(=O)C(F)CC(=O)[O-].[Na+] (stereo not shown) — recorded TI Mouse = 2.6

###

Conditions: rat plasma, 37° C., 30 s, HPLC
Where a name gives a salt, the structure may show the parent alone.
Quantity: Dissociation percent 30 s (%)
All answers are understood in %, so give the number only.

• CC(C)c1cccc(C(C)C)c1OC(=O)C(F)CCOP(=O)([O-])[O-].[K+].[K+] (racemic) [G1] = 86.9

Short answer for CC(C)c1cccc(C(C)C)c1OC(=O)C(F)CCN(C)C (racemic) [E1, hydrochloride] : Dissociation percent 30 s was 96.7

// recorded Dissociation percent 30 s for CC(C)c1cccc(C(C)C)c1OC(=O)C(F)C(=O)[O-].[Na+] (stereo not shown) [F8] : 83.3

The measured Dissociation percent 30 s associated with CC(C)c1cccc(C(C)C)c1OC(=O)C(F)CC(=O)[O-].[Na+] (stereo not shown) [F7] reads 85.4

###

Assay: in vivo
Settings: male, SD, rat, intravenous, caudal vein injection, 6 mg/ml solution
Quantity: LD50 (mg/kg)
Answer format: numeric, mg/kg implied, no suffix.

Entry CC(C)c1cccc(C(C)C)c1O [Propofol, 2,6-diisopropylphenol] , LD50 reported as 17.4

###

Conditions: rabbit plasma, 37° C., 15 s, HPLC
Where a name gives a salt, the structure may show the parent alone.
Here the recorded Dissociation percent 15 s is given for each entry.
Numeric answer plus unit only.

- CC(C)c1cccc(C(C)C)c1OC(=O)C(F)CCN(C)C (racemic) [E1, hydrochloride]: 67.5%
- CC(C)c1cccc(C(C)C)c1OC(=O)C(F)CCOP(=O)([O-])[O-].[K+].[K+] (racemic) [G1]: 43.7%

Query CC(C)c1cccc(C(C)C)c1OC(=O)[C@@H](F)CCOP(=O)([O-])[O-].[Na+].[Na+] [G2] yields Dissociation percent 15 s of 37.2%

###

Assay: physchem
Details: physiological saline, saline or isotonic
Where a name gives a salt, the structure may show the parent alone.
Quantity: solubility

GET /value?item= CC(C)c1cccc(C(C)C)c1OC(=O)C(F)CCN(C)C (racemic) [E1, hydrochloride] &field=solubility returns > 20 mg/mL

###

The reader will find reported Dissociation percent 5 s values listed item by item below.
Conditions: rat plasma, 37° C., 5 s, HPLC
Hi! Could you send only the number? It should be in %, unit omitted.

- CC(C)c1cccc(C(C)C)c1OC(=O)[C@@H](CCOP(=O)([O-])[O-])C(F)(F)F.[Li+].[Li+]: 38.7
- CC(C)NCC(CF)C(=O)Oc1c(C(C)C)cccc1C(C)C.CS(=O)(=O)O (racemic): 24.2
- CC(C)c1cccc(C(C)C)c1OC(=O)C(CF)CP(=O)([O-])[O-].CC(C)c1cccc(C(C)C)c1OC(=O)C(CF)CP(=O)([O-])[O-].CC(C)c1cccc(C(C)C)c1OC(=O)C(CF)CP(=O)([O-])[O-].[Al+3].[Al+3] (racemic): 22.1
- CC(C)c1cccc(C(C)C)c1OC(=O)[C@H](F)CCN(C)C.Cl [E2]: 100

The recorded Dissociation percent 5 s for CC(C)c1cccc(C(C)C)c1OC(=O)C(F)CCCCCC(=O)[O-].CC(C)c1cccc(C(C)C)c1OC(=O)C(F)CCCCCC(=O)[O-].[Ca+2] (racemic) is 63.8

Quick note, Dissociation percent 5 s for `CC(C)c1cccc(C(C)C)c1OC(=O)[C@@H](F)CCOP(=O)([O-])[O-].[Na+].[Na+]` landed at 48.5

Value of measured Dissociation percent 5 s for the entry `CC(C)c1cccc(C(C)C)c1OC(=O)[C@H](F)CCN1CCCC1.Cl` : 95.6

Documented Dissociation percent 5 s of CC(C)c1cccc(C(C)C)c1OC(=O)C(F)CCC(=O)[O-].[K+] (stereo not drawn) : 92.3

Sample CC(C)c1cccc(C(C)C)c1OC(=O)C(F)C(=O)[O-].[Na+] (stereo not drawn) ; Dissociation percent 5 s observed: 55.5

# Dissociation percent 5 s of CC(C)c1cccc(C(C)C)c1OC(=O)C(F)CCCC(=O)[O-].CC(C)c1cccc(C(C)C)c1OC(=O)C(F)CCCC(=O)[O-].[Zn+2] (stereo not drawn) = 63.2

GET /value?item= CCN(C)CCC(F)C(=O)Oc1c(C(C)C)cccc1C(C)C.Cl (racemic) &field=Dissociation percent 5 s returns 70.2

The molecule listed as `CC(C)c1cccc(C(C)C)c1OC(=O)[C@@H](F)CCN1CC1.Cl` shows Dissociation percent 5 s equal to 92.3

###

Overview of recorded Dissociation percent 15 s for various compounds
Details: rabbit plasma, 37° C., 15 s, HPLC
Give the value, in units of %, as a plain number.

// solved cases for Dissociation percent 15 s follow
* CC(C)NCC(CF)C(=O)Oc1c(C(C)C)cccc1C(C)C.CS(=O)(=O)O (racemic) | 27.1
* CC(C)c1cccc(C(C)C)c1OC(=O)C(CF)CCCCCCC(=O)[O-].CC(C)c1cccc(C(C)C)c1OC(=O)C(CF)CCCCCCC(=O)[O-].CC(C)c1cccc(C(C)C)c1OC(=O)C(CF)CCCCCCC(=O)[O-].[Al+3] (racemic) | 37.1
* CC(C)c1cccc(C(C)C)c1OC(=O)C(F)CCC(=O)[O-].[K+] (centres unmarked) | 73.4
* CC(C)c1cccc(C(C)C)c1OC(=O)C(F)CC(=O)[O-].[Na+] (centres unmarked) | 46.3
* CC(C)c1cccc(C(C)C)c1OC(=O)[C@H](F)CCN(C)C.Cl [E2] | 97.7
* CC(C)c1cccc(C(C)C)c1OC(=O)C(CF)CP(=O)([O-])[O-].CC(C)c1cccc(C(C)C)c1OC(=O)C(CF)CP(=O)([O-])[O-].CC(C)c1cccc(C(C)C)c1OC(=O)C(CF)CP(=O)([O-])[O-].[Al+3].[Al+3] (racemic) | 27.1
* CC(C)c1cccc(C(C)C)c1OC(=O)[C@@H](CCOP(=O)([O-])[O-])C(F)(F)F.[Li+].[Li+] | 21.7

Shift focus to the following entry.
GET /value?item= `CC(C)c1cccc(C(C)C)c1OC(=O)[C@H](F)CCN1CCCC1.Cl` &field=Dissociation percent 15 s returns 91.1
